system: alpha2C receptor (Homo sapiens, UniProt P18825)
Construct: expressed in transfected cells; host or cells: NIH-3T3
Sequence (P18825 whole entry): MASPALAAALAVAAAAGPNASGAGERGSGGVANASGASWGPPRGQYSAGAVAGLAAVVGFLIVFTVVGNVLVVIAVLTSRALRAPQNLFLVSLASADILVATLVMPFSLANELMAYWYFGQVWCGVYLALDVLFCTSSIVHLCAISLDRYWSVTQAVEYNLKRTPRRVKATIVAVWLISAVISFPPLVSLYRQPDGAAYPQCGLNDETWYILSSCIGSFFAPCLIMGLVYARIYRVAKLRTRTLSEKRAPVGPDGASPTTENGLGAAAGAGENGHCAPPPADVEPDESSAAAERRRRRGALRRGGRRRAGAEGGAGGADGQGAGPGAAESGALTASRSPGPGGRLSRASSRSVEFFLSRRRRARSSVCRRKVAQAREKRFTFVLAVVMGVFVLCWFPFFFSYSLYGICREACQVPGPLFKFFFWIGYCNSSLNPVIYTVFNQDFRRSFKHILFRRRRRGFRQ
testDescription: Receptor Selection and Amplification Technology (RSAT) assay, alpha2C
Assay type: cell-based
testSettings: ratio of maximal effect of the drug to maximal effect of standard full agonist brimonidine (UK14304)
molecules and their reported Alpha 2C IA (intrinsic activity)

# example entries with known answers
molecule | readoutValue
O=C(NCCF)NCC1CCc2ccccc21 (centres unmarked) | 0.38
O=C(NCCF)NC1CCCCc2ccccc21 (centres unmarked) | 0.5
CC1=C(C)C(NC(=O)NCCF)CC1 (centres unmarked) | 0.64
CCc1cccc2c1CCC2NC(=O)NCCF (centres unmarked) | 0.47
O=C(NCCF)NC1CCCc2sccc21 (centres unmarked) | 0.52
CC1=CC(NC(=O)NCCF)CC1 (centres unmarked) | 0.47
O=C(NCCF)NC1CCc2ccc(Cl)c(Cl)c21 (centres unmarked) | 0.43
O=C(NCCF)NC1CCc2cccc(Br)c21 (centres unmarked) | 0.97
CC1=C(C)C(NC(=O)NCCF)CCC1 (centres unmarked) | 0.52
COc1ccc2c(c1)C(NC(=O)NCCF)CC2 (centres unmarked) | 0.31

**Q:** Requested field: Alpha 2C IA (intrinsic activity). Item: O=C(NCCF)NC1CCc2c(F)cccc21 (centres unmarked)
**A:** 0.68

**Q:** Using the record for COc1cccc2c1CCC2NC(=O)NCCF (centres unmarked) , report its Alpha 2C IA (intrinsic activity).
**A:** 0.59

**Q:** Give its Alpha 2C IA (intrinsic activity) value. Item: CC1CC(NC(=O)NCCF)c2ccccc21 (centres unmarked)
**A:** 0.43

**Q:** Look up Alpha 2C IA (intrinsic activity): O=C(NCCF)NC1CCc2cc(Br)ccc21 (centres unmarked)
**A:** 0.31
